Every entry's value here was drawn from ChEMBL document CHEMBL2390925.

// values below are reported Efficacy
molecular target: N-formyl peptide receptor 2 (Homo sapiens); test: Agonist activity at FPR2 (unknown origin) transfected in human HL60 cells assessed as induction of Ca2+ mobilization relative to WKYMVm; type: functional, cell-based; settings: HL-60
recorded-metric: Efficacy (%)

- COc1cccc(Cc2cc(C(C)C)nn(CC(=O)Nc3ccc(Br)cc3)c2=O)c1: 90
- CCc1cc(Cc2cccc(OC)c2)c(=O)n(CC(=O)Nc2ccc(I)cc2)n1: 65
- Cc1cc(Cc2cccc(Cl)c2)c(=O)n(CC(=O)Nc2ccc(I)cc2)n1: 35
- Cc1cc(Cc2cccs2)c(=O)n(CC(=O)Nc2ccc(Br)cc2)n1: 60
- COc1cccc(C(=O)Nc2cc(C)nn(CC(=O)Nc3ccc(Br)cc3)c2=O)c1: 100
- COc1cccc(Cc2ccnn(CC(=O)Nc3ccc(Br)cc3)c2=O)c1: 60
- Cc1cc(Cc2ccc(C(N)=O)cc2)c(=O)n(CC(=O)Nc2ccc(Br)cc2)n1: 80
- COc1ccc(Nc2c(C(C)=O)c(C)nn(CC(=O)Nc3ccc(Br)cc3)c2=O)cc1: 90
- Cc1cc(Cc2ccccc2)c(=O)n(CC(=O)Nc2ccc(Br)cc2)n1: 20
- COc1ccc(Nc2cc(C)nn(CC(=O)Nc3ccc(Br)cc3)c2=O)cc1: 110
- Cc1cc(Cc2cccnc2)c(=O)n(CC(=O)Nc2ccc(Br)cc2)n1: 90
- COc1cccc(C(=O)c2cc(C)nn(CC(=O)Nc3ccc(Br)cc3)c2=O)c1: 110
- Cc1cc(Cc2ccsc2)c(=O)n(CC(=O)Nc2ccc(Br)cc2)n1: 65
- Cc1cc(N)c(=O)n(CC(=O)Nc2ccc(Br)cc2)n1: 85
- COc1cccc(Cc2cc(-c3ccccc3)nn(CC(=O)Nc3ccc(Br)cc3)c2=O)c1: 25
- Cc1cc(Cc2ccoc2)c(=O)n(CC(=O)Nc2ccc(Br)cc2)n1: 75
